B1: Max-interacting protein 1, residues 70 to 120; numbered along this chain, P50539 (parent)
chain: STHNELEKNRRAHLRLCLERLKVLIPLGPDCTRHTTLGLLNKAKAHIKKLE

variants of: B1; assay: abundance fitness (aPCA) (normalised: wild type 0, dead -1); higher = more abundant; growth selection in yeast, the domain comes from the species named; details: Homo sapiens

| Mutation code | abundance fitness |
| --- | --- |
| S1T | -0.577 |
| L24F | -0.277 |
| L37C | -0.244 |

Taken from the Human Domainome abundance scans (Beltran et al. 2025).
